Origin of measurements: paper PMC5537305

- Protocol Notes: Aqueous dissolution in the dark of UV-irradiated crystals of 3
- Assay type: physicochemical
- Stated Conditions: phosphate buffer, 37 °C, pH 7.4, aqueous buffer, thermodynamic from solid, Unirradiated crystals, entry 1, phosphate buffer, dark, 37 °C, 1 h; read-out: Aqueous solubilized 3
- Source text: At the photostationary state under UV irradiation, the equilibria shown in Fig. 3a should be in balance. Here, we are interested in the transient process, i.e., how cis-3 in solution increases when UV irradiation is started. […] Figure 3 (a) Possible equilibria and routes for generating cis-3 in solution. (b) Kinetics of aqueous dissolution of UV-irradiated crystals of 3, measured in the dark. […]
Assay Metric: solubility at 1 h (µg/mL)

INSERT INTO measurements (compound, assay_metric, experimental_value) VALUES
  ('CC(C)n1nc(/N=N/c2ccccc2)c2c(N)ncnc21 [Compound 3]', 'solubility at 1 h', 2.8);
